Please go through the items and note down their growth.
- Tested on: ACHN renal
- RUN_DESCRIPTION: NCI-60 one-dose screen, 48 h (100 = growth as untreated, 0 = no growth, -100 = all killed)
- REPORTED_CONDITIONS: 10 µM unless noted
The panel holds about 83,000 compounds, 20% with a hit somewhere; the sample as a whole holds those more often.
Answers are plain numbers, in %.

In the examples that follow, each entry is paired with its recorded growth.
COMPOUND	MEASUREMENT_NAME	MEASURED_NUMBER
C[C@]12CCc3sc(NCCc4ccccc4)nc3C1=CC[C@@H]1[C@@H]2CC[C@]2(C)C(=O)CC[C@@H]12	growth	73.8
CC[C@H](C)[C@H](NC(=O)NC(C)(C)C)C(=O)N(C)[C@H](C[C@@H](OC(C)=O)c1nc(C(=O)N[C@@H](Cc2ccccc2)C[C@H](C)C(=O)OC)cs1)C(C)C	growth	22.7
CC(C)CCC(=O)O[C@H]1CC[C@H]2[C@@H]3CCC4=CC(=O)CC[C@]4(C)[C@H]3CC[C@]12C	growth	98.5
C[C@@]12CC=C3c4nc(Nc5cccc(O)c5)sc4CC[C@]3(C)[C@H]1CC[C@]1(C)C(=O)CC[C@@H]21	growth	5.12

Each compound below has a reported value. Please supply its growth.
1. COC(=O)[C@@H](C)C[C@H](Cc1ccccc1)NC(=O)c1csc([C@@H](C[C@H](C(C)C)N(C)C(=O)[C@@H](NC(=O)[C@H]2CCCCN2C)C(C)C)OC(C)=O)n1
2. CCOC(=O)[C@@H](C)C[C@H](Cc1ccccc1)NC(=O)c1csc([C@@H](C[C@H](C(C)C)N(C)C(=O)[C@@H](NC(=O)[C@H]2C[C@H](O)CCN2C)C(C)C)OC(C)=O)n1
3. Nc1ccc(-c2nc3cc(F)ccc3[se]2)cc1F
4. CN1C(=O)C23CC4(C56CC78SSC(CO)(C(=O)N7C5Nc5ccccc56)N(C)C8=O)c5ccccc5NC4N2C(=O)C1(CO)SS3 (stereo not drawn)
5. CC1(C)CN1P(=O)(N1CC1(C)C)N1CC1(C)C (stereo not drawn)

1. 12.6
2. 19.7
3. 30.3
4. -100
5. 112

====

Task for the reader: assign each of the following molecules its reported growth.
- Tested on: TK-10 renal
- RUN_DESCRIPTION: NCI-60 one-dose screen, 48 h (100 = growth as untreated, 0 = no growth, -100 = all killed)
- REPORTED_CONDITIONS: 10 µM unless noted
Compounds without any hit were thinned out: in the full panel of roughly 83,000, 20% have a hit. The source made the active and inactive calls. The calls were made as follows: active = growth percent below 10; inactive = the rest.

Below are 7 molecules. Give each one its growth.
1. COC(=O)[C@@H](C[C@H](Cc1ccccc1)NC(=O)c1csc([C@@H](C[C@H](C(C)C)N(C)C(=O)[C@@H](NC(=O)[C@H]2CCCCN2C)C(C)C)OC(C)=O)n1)NC(=O)OCc1ccccc1
2. Clc1cccc(N2COOC3(OOC2)C2CC4CC(C2)CC3C4)c1
3. CC1(C)N=C(N)N=C(N)N1c1ccc(CCCCc2ccc(Cl)c(S(=O)(=O)F)c2)c(Cl)c1
4. CNCc1cccnc1
5. CCOP1(=O)CC(C)=C(Cl)C(P(=O)(OCC)OCC)C1 (stereo not given)
6. C[n+]1c(/C=C/c2ccc(N(CCCl)CCCl)cc2)sc2ccccc21
7. COC(=O)[C@@H](C)C[C@H](Cc1ccccc1)NC(=O)c1csc([C@@H](C[C@H](C(C)C)N(C)C(=O)[C@@H](NC(=O)[C@H]2CCCCN2C)C2CC2)OC(C)=O)n1

45.2% [9.5 µM] (inactive)
40.9% (inactive)
41.7% (inactive)
113% (inactive)
135% (inactive)
96.7% (inactive)
38.6% (inactive)
